Listing: melting point of selected compounds

In [3]: df
Out[3]:
                                   compound     metricname  valuemeasured
0  CC(=O)OC1CCC2(C)C(CCC3C4CC(C)=C(C(C)=O)C4(C)CC(=O)C32)C1 (stereo not drawn)  melting point  200 to 208 °C
1      Cc1nn2c(O)ccnc2c1-c1cc(-c2ccccc2)cs1  melting point  218 to 235 °C

melting point recorded for this compound, CCc1nc2c(c3c1[nH]c1ccccc13)C(=O)CC(C)(C)C2 , is 188 to 190 °C

###

// melting point lookup, one value per entry

Known results for molecules:
                                   molecule  valuemeasured
0  CCCC(=O)Nc1cc(C(=O)NC2CCN(C(C)CC(C(=O)N(C)C)(c3ccccc3)c3ccccc3)CC2OC)c(OC)cc1Cl (configuration not stated)         131 °C
1  CC(C)(C)OC(=O)C(=[N+]=[N-])C(=O)C(C(=O)OC(C)(C)C)[C@H]1NC(=O)[C@@H]1Br (some centres not stated)  136 to 138 °C

Entry C=CCOC(=O)c1c(C)nc2c(cnn2CCCC#N)c1N , melting point reported as 86 °C

get_value(item= COc1cc2c(cc1N1CCN(C)CC1)N(C(=O)c1ccc(-c3ccc(-c4noc(C)n4)cc3C)cc1)CC2 , readout=melting point) returns 213 to 214 °C

melting point in this record for COC(=O)c1cccc(C2C(C#N)=C(N)Oc3c2ccc2cccnc32)c1 (configuration not stated) : 198 to 200 °C

Reported melting point for CC12CCC(C(=NO)C1=O)C(C)(C)O2 (configuration not stated) was 158 to 159 °C

Input O=C1c2ccccc2C(=O)N1CCc1ncc(C(F)(F)F)cc1Cl . Output melting point: 147 to 148 °C
